Value source: patent US10294202B2

Foxtail, Giant plant response rating listing for selected compounds.
System: foxtail, giant
Test: Test C pre-/postemergence herbicide test
Format: in vivo, Setaria faberii
Conditions: Preemergence, 62 g ai/ha; scale 0 to 100 (0 no effect, 100 complete control)
quantity kind: Foxtail, Giant plant response rating

{"compound": "CN1CC(c2cccc(C(F)(F)F)c2)C(C(=O)Nc2ccccc2F)C1=O (stereo not shown)", "measured result": 98}
{"compound": "O=C1NCC(c2cccc(C(F)F)c2)C1C(=O)Nc1cccc(F)c1F (racemic)", "measured result": 70}
{"compound": "O=C1NCC(c2ccc(C(F)(F)F)cc2)C1C(=O)Nc1ccccc1Cl (stereo not shown)", "measured result": 90}
{"compound": "O=C1NCC(c2ccc(C(F)(F)F)c(F)c2)C1C(=O)Nc1ccccc1F (racemic)", "measured result": 90}
{"compound": "O=C1NCC(c2ccc(C(F)(F)F)nc2)C1C(=O)Nc1ccccc1F (racemic)", "measured result": 70}
{"compound": "O=C1NCC(c2cccc(C(F)(F)F)c2)C1C(=O)Nc1ccccc1Cl (racemic)", "measured result": 90}
{"compound": "O=C1NCC(c2cccc(OC(F)F)c2)C1C(=O)Nc1cccc(F)c1F (stereo not shown)", "measured result": 90}
{"compound": "O=C1NCC(c2ccc(C(F)(F)F)cc2)C1C(=O)Nc1ccc(F)c(F)c1F (stereo not shown)", "measured result": 90}
{"compound": "O=C1NCC(c2cccc(C(F)(F)F)c2)C1C(=O)Nc1ccc(F)cc1F (racemic)", "measured result": 90}
{"compound": "O=C1NCC(c2cccc(C(F)(F)F)c2)C1C(=O)Nc1cccc(F)c1F (stereo not shown)", "measured result": 95}

* * *

Test system: johnsongrass
Assay: Test C pre-/postemergence herbicide test
Format: in vivo, Sorghum halepense
Conditions: Postemergence; 250 g ai/ha; scale 0 to 100 (0 no effect, 100 complete control)
quantity kind: Plant response rating, Johnsongrass

{"compound": "O=C1NCC(c2cccc(OC(F)F)c2)C1C(=O)Nc1ccccc1F (centres unmarked)", "quantity kind": "Plant response rating, Johnsongrass", "measured result": 0}
{"compound": "O=C1NCC(c2cc(F)c(F)c(F)c2)C1C(=O)Nc1ccccc1F (racemic)", "quantity kind": "Plant response rating, Johnsongrass", "measured result": 0}
{"compound": "O=C1NCC(c2ccc(C(F)(F)F)cc2)C1C(=O)Nc1ccc(F)c(F)c1F (centres unmarked)", "quantity kind": "Plant response rating, Johnsongrass", "measured result": 25}
{"compound": "Cc1cccc(NC(=O)C2C(=O)NCC2c2cccc(C(F)(F)F)c2)c1 (centres unmarked)", "quantity kind": "Plant response rating, Johnsongrass", "measured result": 5}
{"compound": "O=C1NCC(c2cccc(C(F)(F)F)c2)C1C(=O)Nc1ccc(F)c(F)c1F (centres unmarked)", "quantity kind": "Plant response rating, Johnsongrass", "measured result": 35}

* * *

System: barnyardgrass
Assay: Test A pre-/postemergence herbicide test
Format: in vivo, Echinochloa crus-galli
Conditions: 125 g ai/ha; visual rating, 0 to 100 scale, 0 no effect, 100 complete control; approximately 10 days; preemergence
Plant response rating, Barnyardgrass listing for selected molecules.

{"molecule": "O=C1NCC(c2ccc(OC(F)F)cc2)C1C(=O)Nc1ccccc1Br (stereo not drawn)", "Plant response rating, Barnyardgrass": 20}
{"molecule": "COc1ccc(C2CNC(=O)C2C(=O)Nc2ccccc2C(F)(F)F)cc1C(F)(F)F (stereo not drawn)", "Plant response rating, Barnyardgrass": 20}
{"molecule": "O=C1NCC(c2cccc(OC(F)F)c2)C1C(=O)Nc1ccccc1Cl (stereo not drawn)", "Plant response rating, Barnyardgrass": 70}
{"molecule": "O=C1NCC(c2cccc(OC(F)(F)C(F)F)c2)C1C(=O)Nc1ccc(F)c(F)c1F (racemic)", "Plant response rating, Barnyardgrass": 70}
{"molecule": "O=C1NCC(c2ccc(Cl)cc2)C1C(=O)Nc1ccccc1Cl (stereo not drawn)", "Plant response rating, Barnyardgrass": 30}
{"molecule": "Cc1ccccc1NC(=O)C1C(=O)NCC1c1cccc(OC(F)F)c1 (stereo not drawn)", "Plant response rating, Barnyardgrass": 30}
{"molecule": "O=C1NCC(c2cccc(C(F)(F)F)c2)C1C(=O)Nc1nc(C(F)(F)F)co1 (racemic)", "Plant response rating, Barnyardgrass": 20}
{"molecule": "CC(C)(C)c1cccc(C2CNC(=O)C2C(=O)Nc2cccc(F)c2F)c1 (racemic)", "Plant response rating, Barnyardgrass": 60}
{"molecule": "CC(C)(C)c1cccc(C2CNC(=O)C2C(=O)Nc2ccccc2C(F)(F)F)c1 (racemic)", "Plant response rating, Barnyardgrass": 0}
{"molecule": "O=C1NCC(c2cccc(C(F)(F)F)c2)C1C(=O)Nc1cccc(F)c1 (racemic)", "Plant response rating, Barnyardgrass": 40}
{"molecule": "O=C1NCC(c2ccc(Cl)cc2)C1C(=O)Nc1ccccc1C(F)(F)F (stereo not drawn)", "Plant response rating, Barnyardgrass": 30}
{"molecule": "O=C1NCC(c2cccc(C3CC3)c2)C1C(=O)Nc1ccccc1F (racemic)", "Plant response rating, Barnyardgrass": 80}
{"molecule": "CCc1cccc(C2CNC(=O)C2C(=O)Nc2ccc(F)c(F)c2F)c1 (racemic)", "Plant response rating, Barnyardgrass": 90}
{"molecule": "Cc1ccc(C2CNC(=O)C2C(=O)Nc2ccccc2F)cc1 (racemic)", "Plant response rating, Barnyardgrass": 90}
{"molecule": "O=C1NCC(c2ccc(OC(F)(F)C(F)F)cc2)C1C(=O)Nc1cccc(F)c1F (racemic)", "Plant response rating, Barnyardgrass": 0}

* * *

Test system: pigweed
Assay: Test C pre-/postemergence herbicide test
Type: in vivo, Amaranthus retroflexus
Conditions: Preemergence, 62 g ai/ha; scale 0 to 100 (0 no effect, 100 complete control)
quantity kind: Pigweed plant response rating

{"compound": "O=C1NCC(c2cccc(Cl)c2)C1C(=O)Nc1cccc(F)c1F (racemic) [Compound 275]", "measured result": 0}
{"compound": "O=C1NCC(c2cccc(C(F)(F)F)c2)C1C(=O)Nc1ccc(F)cc1F (racemic) [Compound 207]", "measured result": 0}
{"compound": "O=C1NCC(c2cccc(C(F)(F)F)c2)C1C(=O)Nc1ccccc1Cl (racemic) [Compound 189]", "measured result": 0}
{"compound": "CN1CC(c2cccc(C(F)(F)F)c2)C(C(=O)Nc2ccccc2F)C1=O (stereo not shown) [Compound 277]", "measured result": 35}

* * *

Tested on: ragweed
Assay: Test C pre-/postemergence herbicide test
Format: in vivo, Ambrosia elatior
Settings: Preemergence, 62 g ai/ha; scale 0 to 100 (0 no effect, 100 complete control)
Ragweed plant response rating listing for selected molecules.
quantity kind: Ragweed plant response rating

{"molecule": "CN1CC(c2ccc(C(F)(F)F)cc2)C(C(=O)Nc2ccccc2F)C1=O (centres unmarked) [Compound 304]", "system": "ragweed", "measured result": 60}
{"molecule": "O=C1NCC(c2cccc(C(F)(F)F)c2)C1C(=O)Nc1ccccc1Cl (racemic) [Compound 189]", "system": "ragweed", "measured result": 0}
{"molecule": "O=C1NCC(c2cccc(Cl)c2)C1C(=O)Nc1cccc(F)c1F (racemic) [Compound 275]", "system": "ragweed", "measured result": 5}
{"molecule": "O=C1NCC(c2ccc(C(F)(F)F)nc2)C1C(=O)Nc1ccccc1F (racemic) [Compound 262]", "system": "ragweed", "measured result": 20}
{"molecule": "O=C1NCC(c2cccc(C(F)(F)F)c2)C1C(=O)Nc1ccc(F)cc1F (racemic) [Compound 207]", "system": "ragweed", "measured result": 0}
{"molecule": "O=C1NCC(c2ccc(C(F)(F)F)c(F)c2)C1C(=O)Nc1ccccc1F (racemic) [Compound 246]", "system": "ragweed", "measured result": 0}
{"molecule": "O=C1NCC(c2cccc(OC(F)F)c2)C1C(=O)Nc1cccc(F)c1F (centres unmarked) [Compound 324]", "system": "ragweed", "measured result": 60}
{"molecule": "O=C1NCC(c2cccc(OC(F)F)c2)C1C(=O)Nc1ccc(F)c(F)c1F (centres unmarked) [Compound 325]", "system": "ragweed", "measured result": 60}

* * *

Plant response rating, Soybean listing for selected compounds.
Tested on: soybean
Assay: Test C pre-/postemergence herbicide test
Type: in vivo, Glycine max
Settings: Postemergence, 62 g ai/ha; scale 0 (no effect) to 100 (complete control)
Text: […]
quantity kind: Plant response rating, Soybean

{"compound": "CN1CC(c2ccc(C(F)(F)F)cc2)C(C(=O)Nc2ccccc2F)C1=O (stereo not drawn)", "measured result": 5}
{"compound": "O=C1NCC(c2cccc(C(F)(F)F)c2)C1C(=O)Nc1ccc(F)cc1F (racemic)", "measured result": 5}
{"compound": "O=C1NCC(c2cccc(C(F)(F)F)c2)C1C(=O)Nc1ccc(F)c(F)c1F (stereo not drawn)", "measured result": 0}
{"compound": "O=C1NCC(c2cccc(C(F)(F)F)c2)C1C(=O)Nc1ccccc1Cl (stereo not drawn)", "measured result": 0}
{"compound": "CN1CC(c2ccc(F)cc2)C(C(=O)Nc2cccc(F)c2F)C1=O (stereo not drawn)", "measured result": 60}
{"compound": "O=C1NCC(c2cc(F)cc(F)c2)C1C(=O)Nc1ccc(F)cc1F (racemic)", "measured result": 55}
